Origin of values: patent US20160075790A1

# tested.on: T1, human CD40L, membrane-bound on cells (human, UniProt P29965 1-261)
# T1 sequence: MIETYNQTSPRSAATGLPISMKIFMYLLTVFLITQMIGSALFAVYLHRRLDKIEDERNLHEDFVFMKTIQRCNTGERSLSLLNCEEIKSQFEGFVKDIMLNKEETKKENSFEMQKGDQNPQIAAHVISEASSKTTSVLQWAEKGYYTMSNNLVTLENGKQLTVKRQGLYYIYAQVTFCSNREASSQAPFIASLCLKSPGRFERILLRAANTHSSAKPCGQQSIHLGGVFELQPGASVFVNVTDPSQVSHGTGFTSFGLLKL
# assay.explanation: cell-based or functional assay
T-B cell MLR EC50 by entry:
// return numeric value only (unit: pM, not printed)

2h572-635-CT Long Fc (Fc fusion, not shown: linker and CT Long Fc (CT-L2)) EVQLLESGGGLVQPGGSLRLSCAASGFTFNWELMGWARQAPGKGLEWVSGIEGPGDVTYYADSVKGRFTISRDNSKNTLYLQMNSLRAEDTAVYYCVKVGKDSKSDYRGQGTLVTVSS ... 149
2h572-619-Ctlong Fc (Fc fusion, not shown: linker and CT Long Fc (CT-L2)) EVQLLESGGGLVQPGGSLRLSCAASGFTFNWQLMGWVRQAPGKGLEWVSGIEGPGDVTYYADSVKGRFTISRDNSKNTLYLQMNSLRAEDTAVYYCVKVGKDSRSDYRGQGTLVTVSS ... 720

Could you now look at the following binder, please?
Determine from records and report T-B cell MLR EC50 for 2h572-6-CT Long Fc (Fc fusion, not shown: linker and CT Long Fc (CT-L2)) EVQLLESGGGLVQPGGSLRLSCAASGFTFNWQLMGWVRQAPGKGLEWVSGIEGPGDVTYYADSVKGRFTISRDNSKNTLYLQMNSLRAEDTAVYYCVKVGKESNSDYRGQGTLVTVSS
13600
